- System: NCI-H23
- EXPERIMENT DESCRIPTION: Growth inhibition of human NCI-H23 cells assessed as reduction in cell viability measured after 48 hrs by SRB method
- Format: functional
Where a name gives a salt, the structure may show the parent alone.
Give GI50 for every item shown.
Give bare numbers, in µM.

>>> value_reported("CC(=O)NCCCCCCCCCC(=O)CCO")
18
>>> value_reported("CC(=O)NCCCCCCCCCC[C@H](O)CO")
0.5
>>> value_reported("COc1cccc2c1C(=O)c1c(O)c3c(c(O)c1C2=O)C[C@@](O)(C(=O)CO)C[C@@H]3O[C@H]1C[C@H](N)[C@H](O)[C@H](C)O1 [DOXORUBICIN HYDROCHLORIDE]")
0.072
>>> value_reported("CC[C@@H](O)CCCCCCCCCNC(C)=O")
5.3
>>> value_reported("CC(=O)NCCCCCCCCC[C@@H](O)CCO")
4.6
>>> value_reported("CC(=O)NCCCCCCCCC[C@@H](O)[C@H](C)O")
7.2
>>> value_reported("CC(=O)NCCCCCCCCCC[C@@H](C)O")
22
>>> value_reported("CC(=O)NCCCCCCCCCO")
2.1
>>> value_reported("CC(=O)CCCCCCCCNC(C)=O")
1

As a next step, examine the molecule that follows.
Short answer for `CC(=O)NCCCCCCCCC[C@@H](O)[C@@H](C)O` : GI50 was 1.9

----------
- Tested on: K562
- EXPERIMENT DESCRIPTION: Growth inhibition of human K562 cells assessed as reduction in cell viability measured after 48 hrs by SRB method
- Format: functional
Where a name gives a salt, the structure may show the parent alone.
Please assign 0 (no) whenever GI50 is at or above 2 µM, and 1 (yes) whenever it is below.

>>> discrete_label("CC(=O)CCCCCCCCCCNC(C)=O")
"0 (no)"
>>> discrete_label("CC(=O)NCCCCCCCCCO")
"0 (no)"
>>> discrete_label("CC(=O)NCCCCCCCCC[C@@H](O)[C@@H](C)O")
"0 (no)"
>>> discrete_label("CCC(=O)CCCCCCCCCNC(C)=O")
"0 (no)"
>>> discrete_label("CC(=O)NCCCCCCCCCC[C@H](O)CO")
"1 (yes)"
>>> discrete_label("CC(=O)NCCCCCCCCCC[C@@H](C)O")
"0 (no)"
>>> discrete_label("CC(=O)NCCCCCCCCC[C@@H](O)[C@H](C)O")
"0 (no)"
>>> discrete_label("CC[C@@H](O)CCCCCCCCCNC(C)=O")
"0 (no)"

// query Would you kindly verify if GI50 of COc1cccc2c1C(=O)c1c(O)c3c(c(O)c1C2=O)C[C@@](O)(C(=O)CO)C[C@@H]3O[C@H]1C[C@H](N)[C@H](O)[C@H](C)O1 [DOXORUBICIN HYDROCHLORIDE] is strictly less than 2 µM?
// result 1 (yes)

// query Just wondering, is GI50 of `CC(=O)NCCCCCCCCCC(=O)CCO` below 2 µM?
// result 0 (no)

// query Given `CC(=O)NCCCCCCCCC[C@@H](O)CCO` , is recorded GI50 strictly lower than 2 µM?
// result 0 (no)

// query Confirm or reject: GI50 of `CC(=O)CCCCCCCCNC(C)=O` lies strictly below 2 µM
// result 0 (no)

----------
- System: PC-3
- EXPERIMENT DESCRIPTION: Growth inhibition of human PC-3 cells assessed as reduction in cell viability measured after 48 hrs by SRB method
- Assay type: functional
Give measured GI50 for each item. Keep answers brief.

Here is how some molecules turned out for GI50.
>>> value_reported("CC(=O)CCCCCCCCNC(C)=O")
"0.8 µM"
>>> value_reported("CC(=O)NCCCCCCCCC[C@@H](O)[C@H](C)O")
"7.3 µM"

Give measured GI50 for every item shown.
1. CC(=O)NCCCCCCCCCO
2. CC(=O)NCCCCCCCCC[C@@H](O)CCO
3. CC(=O)NCCCCCCCCCC[C@@H](C)O
4. CCC(=O)CCCCCCCCCNC(C)=O
5. CC(=O)CCCCCCCCCCNC(C)=O
6. CC[C@@H](O)CCCCCCCCCNC(C)=O

// result
1: 2 µM; 2: 5.5 µM; 3: 19 µM; 4: > 30 µM; 5: > 30 µM; 6: 5.1 µM

----------
- Test system: ACHN
- EXPERIMENT DESCRIPTION: Growth inhibition of human ACHN cells assessed as reduction in cell viability measured after 48 hrs by SRB method
- Type: functional
Counter-ions that a name gives are not always drawn.
MEASURED ATTRIBUTE: log10(GI50) (log10 of the value in µM)
# log10 transformed; quantity=GI50; unit=µM

# example entries with known answers
>>> value_reported("COc1cccc2c1C(=O)c1c(O)c3c(c(O)c1C2=O)C[C@@](O)(C(=O)CO)C[C@@H]3O[C@H]1C[C@H](N)[C@H](O)[C@H](C)O1 [DOXORUBICIN HYDROCHLORIDE]")
-1.09
>>> value_reported("CC(=O)CCCCCCCCNC(C)=O")
0.04
>>> value_reported("CC(=O)NCCCCCCCCCO")
0.36
>>> value_reported("CC(=O)NCCCCCCCCCC[C@H](O)CO")
-0.30
>>> value_reported("CC(=O)NCCCCCCCCC[C@@H](O)CCO")
0.76
>>> value_reported("CC(=O)NCCCCCCCCCC[C@@H](C)O")
1.36
>>> value_reported("CC(=O)NCCCCCCCCCC(=O)CCO")
1.20
>>> value_reported("CC[C@@H](O)CCCCCCCCCNC(C)=O")
0.76

Please give log10(GI50), item by item, for the list that follows.
1. CC(=O)NCCCCCCCCC[C@@H](O)[C@H](C)O
2. CC(=O)NCCCCCCCCC[C@@H](O)[C@@H](C)O

// result
[0.81, 0.20]

----------
- System: NALM-6
- EXPERIMENT DESCRIPTION: Growth inhibition of human NALM-6 cells assessed as reduction in cell viability measured after 48 hrs by SRB method
- Type: functional
Counter-ions that a name gives are not always drawn.
Exercise: state measured GI50 for each of the compounds provided.
Numbers only, in µM.

>>> value_reported("CC(=O)CCCCCCCCNC(C)=O")
9.2
>>> value_reported("COc1cccc2c1C(=O)c1c(O)c3c(c(O)c1C2=O)C[C@@](O)(C(=O)CO)C[C@@H]3O[C@H]1C[C@H](N)[C@H](O)[C@H](C)O1 [DOXORUBICIN HYDROCHLORIDE]")
0.003

Sure, the documented GI50 for `CC(=O)NCCCCCCCCCO` is 18

----------
Record form. Attribute: GI50. Fill in for each entry.
- Test system: PC-3
- EXPERIMENT DESCRIPTION: Growth inhibition of human PC-3 cells assessed as reduction in cell viability measured after 48 hrs by SRB method
- Assay type: functional
Counter-ions that a name gives are not always drawn.
Numbers only, in µM.

Answered cases to consult:
>>> value_reported("COc1cccc2c1C(=O)c1c(O)c3c(c(O)c1C2=O)C[C@@](O)(C(=O)CO)C[C@@H]3O[C@H]1C[C@H](N)[C@H](O)[C@H](C)O1 [DOXORUBICIN HYDROCHLORIDE]")
0.085
>>> value_reported("CC(=O)NCCCCCCCCCC(=O)CCO")
19
>>> value_reported("CC(=O)NCCCCCCCCC[C@@H](O)[C@@H](C)O")
1.7

Shifting focus to the compound that follows.
According to the records, this compound `CC(=O)NCCCCCCCCCC[C@H](O)CO` displays GI50 of 0.5

Numbers sourced from ChEMBL document CHEMBL6127071.
